Assay: MM1S cell viability effects, profiling panel, calcein-AM fluorescence, 48 h, basal (AID 1165);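 note: viability of MM1S multiple myeloma cells under basal unstimulated conditions; test concentration not given here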
Details: higher = more signal
MEASURED_ENDPOINT: z-score
Just the number, please, no unit after it.

- NC(=O)[C@@H]1[C@H]2C(=O)O[C@H](c3ccccc3)[C@H](c3ccccc3)N2[C@H](c2ccc(O)cc2)[C@@]12C(=O)Nc1ccccc12: -0.647
- CCCC[C@@H]1C[C@H]1[C@@H](NC(=O)c1ccco1)c1ccc(-c2ccccc2)cc1: -0.15
- COc1ccc(C#Cc2ccc3c(c2)[C@]2(C(=O)N3)[C@H](C(=O)NC[C@H](O)c3ccccc3)[C@H]3C(=O)O[C@H](c4ccccc4)[C@H](c4ccccc4)N3[C@@H]2c2ccc(O)cc2)cc1: -3.27

// next item, z-score requested
Qu. Given the entry O=C1N[C@@H](Cc2ccccc2)C(=O)N2[C@@H]1C[C@@H](C(=O)O)[C@H]2c1cccc(OCCO)c1 , report its measured z-score.
Ans. -2.61

###

Assay: small-molecule microarray binders of probe aNog, primary screen, biochemical, biotinylated probe, 635/667 nm fluorescence (AID 1115);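 note: probe is biotinylated aNog protein used at 0.15 µg/mL for 1 h at 4 C; z-score combines 667 nm fluorescence of each spot with its signal to noise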
Conditions: higher = more signal
MEASURED_ENDPOINT: composite z-score

Consider the reported composite z-score for these compounds:
* CCOC(=O)C[C@H]1[C@H](OC(=O)c2ccc(C(=O)c3ccccc3)cc2)[C@@H](NC(=O)c2ccccc2)c2cc(OCCCO)ccc2N1C(=O)c1ccc2ccccc2n1 | -0.308
* O=C1O[C@H](c2ccccc2)[C@H](c2ccccc2)N2[C@H]1[C@@H](C(=O)N1CCCCCCC1)[C@]1(C(=O)Nc3ccc(C#CC4=CCCCC4)cc31)[C@H]2c1ccc(OCCO)cc1 | 2.93

Qu. Given the entry [N-]=[N+]=Nc1ccccc1[C@@H]1OC(c2ccc(OCCCO)cc2)=N[C@]1(CCS(=O)(=O)c1ccccc1)C(N)=O , report its measured composite z-score.
Ans. 1.51

Qu. Given the entry CC[C@@H]1C=C(C(=O)O)[C@H](c2ccc(Br)cc2)N1S(=O)(=O)c1ccc(C)cc1 , report its measured composite z-score.
Ans. 0.581

###

Experiment: small-molecule microarray binders of probe aWnt5a, primary screen, biochemical, biotinylated probe, 635/667 nm fluorescence (AID 1113);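 note: score merges 667 nm fluorescence intensity with signal-to-noise per printed feature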
Conditions: higher = more signal
# binarize composite z-score: threshold -0.02 inclusive, high side 1.0, low side 0.0

The examples below pair each entry with its known result.
• COCCOC(=O)N1C(=O)[C@@]2(c3cc(C#CCNC(N)=O)ccc31)[C@H](C(=O)N1CCN(c3ncccn3)CC1)[C@H]1C(=O)O[C@H](c3ccccc3)[C@H](c3ccccc3)N1[C@@H]2c1ccc(OCCO)cc1 = 1.0
• CCCCCCc1nc(-c2cc(C)c(OC)c(C)c2)cc2c1[Si](C(C)C)(C(C)C)OC2 = 0.0
• CCCC[C@@H]1C[C@H]1[C@@H](NC(=O)c1ccccc1)c1ccc(C(=O)OC)cc1 = 0.0
• CN1C=C(C(=O)OCCS(C)(=O)=O)C(C(=O)OCCS(C)(=O)=O)=CC(c2ccc(CO)cc2)=CC1C1CC1 (configuration not stated) = 0.0
• CN1C(=O)C2C=CC(C(O)C3CC=CCC3)N(N(c3ccccc3)c3ccccc3)C2C1=O (configuration not stated) = 1.0

Qu. Could you tell me if the measured composite z-score of C=CC[C@]1(C(=O)NCCCOC)N=C(c2ccc(OCCCO)cc2)O[C@H]1c1ccccc1CN=[N+]=[N-] reaches -0.02 or more?
Ans. 1.0

###

Test: Plasmodium falciparum growth inhibition, primary screen, strain 3D7, DAPI fluorescence, 100 nL (AID 1184);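 note: parasites grown inside human red blood cells in medium with human serum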
Conditions: P. falciparum 3D7 growth, 3 d, higher = more signal
# binarize z-score: threshold -1 inclusive, high side yes, low side no

* COC(=O)[C@@]1(Cc2ccc(OC)cc2)[C@H]2c3cc(C(=O)N(C)C)n(CCc4ccccn4)c3C[C@H]2CN1C(=O)c1ccccc1 | no

Qu. Could you tell me if the measured z-score of COc1cc2c(cc1O)C(C1CC1)N(Cc1sc3ccccc3c1Cl)CC2 (stereo not drawn) reaches -1 or more?
Ans. no

Qu. Could you tell me if the measured z-score of C=CCOC(=O)[C@@H]1[C@H]2C(=O)O[C@H](c3ccccc3)[C@H](c3ccccc3)N2[C@H](c2ccc(OCCOC(=O)[C@@H]3C[C@@H]4C(=O)NCC(=O)N4[C@@H]3c3ccc(O)cc3)cc2)[C@@]12C(=O)Nc1ccc(I)cc12 reaches -1 or more?
Ans. no

Qu. Could you tell me if the measured z-score of COCCCNC(=O)[C@@]1(C)c2ccccc2C(=O)N(C(C)C)[C@H]1c1ccc(CO)cc1 reaches -1 or more?
Ans. yes

Qu. Could you tell me if the measured z-score of COC(=O)[C@@]1(CCS(=O)(=O)c2ccccc2)N=C(c2ccc(OCCCO)cc2)O[C@H]1c1ccccc1CN=[N+]=[N-] reaches -1 or more?
Ans. no

Qu. Could you tell me if the measured z-score of [N-]=[N+]=NCc1ccccc1C[C@]1(C(N)=O)COC(c2ccc(OCCCO)cc2)=N1 reaches -1 or more?
Ans. yes

###

Biological target: Streptavidin (Streptomyces avidinii)
Test: streptavidin binders on small-molecule microarray, primary screen, artefact control for SMM compound annotation, biophysical, 635/667 nm fluorescence (AID 1147);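 note: signal reflects streptavidin binding to arrayed compounds as a control protein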
Details: streptavidin binding, higher = more signal
Measured composite z-score, listed per entry for reference.
Just the number, please, no unit after it.

* Cc1ccc([C@@H]2C[C@@H](Sc3ccccc3)[C@H](C(=O)O)CN2S(=O)(=O)c2ccc(C)cc2)cc1 | 1.39
* COCCOC(=O)N1C(=O)[C@@]2(c3ccccc31)[C@H](c1ccccc1OCCO)N1[C@H](c3ccccc3)[C@H](c3ccccc3)OC(=O)[C@H]1[C@@H]2C(=O)N1CCN(c2ncccn2)CC1 | 0.498
* NC(=O)[C@@H]1[C@H]2C(=O)O[C@H](c3ccccc3)[C@H](c3ccccc3)N2[C@H](c2ccc(O)cc2)[C@@]12C(=O)Nc1ccccc12 | -0.99
* COc1cc2c(cc1O)C(c1cccs1)N(C)CC2 (stereo not given) | -1.17
* CNS(=O)(=O)c1ccc(C)cc1 | 0.385
* COC(=O)[C@H](Cc1ccccc1)N[C@@H](/C=C/C1CC1)[C@H](O)Cc1ccccc1 | 0.648
* C=C(COC)/C(=C/C[C@@H](OC(C)=O)c1ccc(OCCO)cc1)c1cnc2ccccc2c1 | 1.36
* C=CCOC(=O)[C@H]1[C@@H]2C(=O)O[C@@H](c3ccccc3)[C@@H](c3ccccc3)N2[C@@H](c2ccc(OCCOC(=O)[C@@H]3C[C@@H]4C(=O)N[C@@H](CCCCNC(C)=O)C(=O)N4[C@@H]3c3ccc(O)cc3)cc2)[C@]12C(=O)Nc1ccccc12 | -0.0038

Qu. What reported composite z-score corresponds to CN(C)CCCCCCNC(=O)[C@H]1C[C@H]2C(=O)N3CCC[C@H]3C(=O)N2[C@H]1c1ccc(O)cc1 on Streptavidin (Streptomyces avidinii)?
Ans. 0.192

Qu. What reported composite z-score corresponds to Cc1ccc(S[C@]2(C(=O)NCCCN(C)C)CC(=O)N(Cc3cc(C(F)(F)F)cc(C(F)(F)F)c3)[C@@H]2c2ccc(CO)cc2)cc1 on Streptavidin (Streptomyces avidinii)?
Ans. -0.529

Qu. What reported composite z-score corresponds to C=CC(=C)[C@H]1Oc2ccccc2S(=O)(=O)N2CCC[C@@H]12 on Streptavidin (Streptomyces avidinii)?
Ans. 0.331

###

Measured composite z-score, listed per entry for reference.
System: Lefty1
Assay: Lefty1 binders on small-molecule microarrays, primary screen, biochemical, small-molecule microarray, 635/667 nm fluorescence (AID 1139)
Conditions: small-molecule microarray binding, fluorescence 635/667; higher = more signal

Consider the reported composite z-score for these compounds:
- COC(=O)[C@@]1(Cc2ccccc2)[C@H]2c3cc(C(=O)N(C)C)n(Cc4ccsc4Br)c3C[C@H]2CN1C(=O)c1ccccc1: -0.143
- O=C1C[C@@](C(=O)NCCN2CCOCC2)(c2ccc([N+](=O)[O-])cc2)[C@@H](c2ccc(CO)cc2I)N1CC12CC3CC(CC(C3)C1)C2: 1.08
- COc1ccc(CCNC(=O)[C@@]2(Sc3ccc(C)cc3)CC(=O)N(C(C)C)[C@@H]2c2ccc(CO)cc2I)cc1: -0.979
- C=C(CCCC)/C(=C/C[C@H](OC(C)=O)c1ccccc1OCCO)c1cc(C(=O)OC)ccc1OC: 0.0742

// next item, composite z-score requested
Qu. Given the entry Cc1ccc(S[C@]2(C(=O)NCCCN(C)C)CC(=O)N(Cc3ccccc3C(F)(F)F)[C@@H]2c2ccc(CO)cc2)cc1 , report its measured composite z-score.
Ans. -0.853

###

Measured composite z-score, listed per entry for reference.
Experiment: small-molecule binders of probe aNOTCH2, primary screen, biochemical, small-molecule microarray, 635/667 nm fluorescence (AID 1121);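 note: score merges feature fluorescence read at 667 nm with its signal to noise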
Details: higher = more signal
Just the number, please, no unit after it.

Consider the reported composite z-score for these compounds:
• COCCOC(=O)N1C(=O)[C@@]2(c3ccccc31)[C@H](c1ccccc1OCCO)N1[C@H](c3ccccc3)[C@H](c3ccccc3)OC(=O)[C@H]1[C@@H]2C(=O)N1CCN(c2ncccn2)CC1 = -0.0756
• COc1ccc(C(=O)Nc2ccc(CN3C(=O)[C@]4(O[C@H](CCO)[C@@H]([Si](C)(C)c5ccc(OC)cc5)[C@@H]4C)c4ccccc43)cc2)cc1 = -0.0891
• COCCCNC(=O)[C@@H]1c2ccccc2C(=O)N(Cc2ccccc2Cl)[C@H]1c1ccc(CO)cc1 = 0.151

Qu. Given the entry C=C(/C(=C/C[C@H](OC(C)=O)c1ccc(CO)o1)c1cc(C(=O)OC)ccc1OC)C(C)C , report its measured composite z-score.
Ans. -0.148

Qu. Given the entry CC1(C)[C@@H]2CC(C(O)C3C=CC4C(=O)N(Cc5ccccc5)C(=O)C4N3n3cnnc3)=C[C@H]1C2 (stereo not given in full) , report its measured composite z-score.
Ans. -0.0866
